The measurements presented in this section are drawn from patent US12258327B2.

TGT: EGFR L858R/C797S (Homo sapiens, UniProt P00533, C797S/L858R)
Sequence (P00533 25-1210 C797S/L858R): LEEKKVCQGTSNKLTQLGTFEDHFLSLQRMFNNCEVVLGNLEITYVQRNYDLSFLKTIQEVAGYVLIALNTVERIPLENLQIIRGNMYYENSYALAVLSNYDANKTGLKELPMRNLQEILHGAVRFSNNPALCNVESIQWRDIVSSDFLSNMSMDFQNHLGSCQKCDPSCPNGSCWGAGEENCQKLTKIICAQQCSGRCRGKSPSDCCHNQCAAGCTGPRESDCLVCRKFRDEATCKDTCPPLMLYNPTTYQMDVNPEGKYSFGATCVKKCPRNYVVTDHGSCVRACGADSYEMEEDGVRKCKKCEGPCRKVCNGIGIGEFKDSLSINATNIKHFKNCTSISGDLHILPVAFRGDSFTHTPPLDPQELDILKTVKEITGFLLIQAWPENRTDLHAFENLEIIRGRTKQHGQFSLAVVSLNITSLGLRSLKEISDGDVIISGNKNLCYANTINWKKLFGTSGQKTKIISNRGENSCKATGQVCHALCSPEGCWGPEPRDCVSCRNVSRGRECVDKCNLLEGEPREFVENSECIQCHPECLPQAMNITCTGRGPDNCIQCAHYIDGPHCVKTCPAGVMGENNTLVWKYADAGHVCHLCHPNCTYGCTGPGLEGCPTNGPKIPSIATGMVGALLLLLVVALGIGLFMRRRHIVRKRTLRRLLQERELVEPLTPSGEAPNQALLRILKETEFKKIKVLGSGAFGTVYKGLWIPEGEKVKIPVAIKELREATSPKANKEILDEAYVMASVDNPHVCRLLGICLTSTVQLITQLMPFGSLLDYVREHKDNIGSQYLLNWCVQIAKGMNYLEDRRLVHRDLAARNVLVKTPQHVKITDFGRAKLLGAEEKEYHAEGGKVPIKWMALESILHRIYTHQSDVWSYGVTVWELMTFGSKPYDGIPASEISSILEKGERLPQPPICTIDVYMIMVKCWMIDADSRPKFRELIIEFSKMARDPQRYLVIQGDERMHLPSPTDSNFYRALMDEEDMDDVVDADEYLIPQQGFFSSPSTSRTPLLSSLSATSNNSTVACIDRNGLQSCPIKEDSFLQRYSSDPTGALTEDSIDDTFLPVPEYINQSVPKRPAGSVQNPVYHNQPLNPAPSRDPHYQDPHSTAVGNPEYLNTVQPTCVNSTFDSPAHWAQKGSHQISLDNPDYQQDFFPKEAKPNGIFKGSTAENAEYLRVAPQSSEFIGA
MEASUREMENT_DESCRIPTION: Biochemical EGFR kinase assay (Lance Ultra TR-FRET), double mutant L858R/C797S
TEST_CONTEXT: IC50 L858R/C797S (nM) 100 μM ATP, 100 μM ATP
OBSERVABLE: IC50 (nM)
Entry rule: numbers only, all in nM.

MOLECULE | UNIT_OF_MEASURE | IC50
CN(C)C[C@H]1CC[C@@H](Nc2cc(Nc3ccnc(-c4cnn(S(=O)(=O)C5CC5)c4)n3)ncc2-c2cc3n(n2)CCCC3)CC1 | nM | 1.6
Cn1ccc(-c2cnc(Nc3ccnc(-c4cnn(S(=O)(=O)C5CC5)c4)n3)cc2N[C@H]2CC[C@](O)(C(F)F)CC2)n1 | nM | 11.5

For the next question, use this molecule.
For the molecule shown here, CC1(C)CC(Nc2cc(Nc3ccnc(-c4cnn(S(=O)(=O)C5CC5)c4)n3)ncc2-c2ccn(C(F)F)n2)CCC1O (stereo not drawn) , give the reported IC50. 453

---

Reported values of IC50 for individual entries
TGT: EGFR del19/T790M/C797S (Homo sapiens, UniProt P00533, C797S/DEL746-750/T790M)
MEASUREMENT_DESCRIPTION: Biochemical EGFR kinase assay (Lance Ultra TR-FRET), triple mutant del19/T790M/C797S
TEST_CONTEXT: Km ATP; read-out: IC50 del19/T790M/C797S (nM) Km ATP
Answer format: value, then unit.

# annotated cases, reported IC50 shown
COMPOUND | RESULT
C[C@]1(O)CC[C@@H](Nc2cc(Nc3ccnc(-c4cccnc4F)n3)ncc2-c2ccn(C(F)F)n2)CC1 [Example 171] | 2.6 nM
Cn1ccc(-c2cnc(Nc3ccnc(-c4cnn(S(=O)(=O)C5CC5)c4)n3)cc2N[C@H]2CC[C@@H](N(C)C)CC2)n1 [Example 124] | 0.1 nM
CN(C)C(=O)[C@H]1CC[C@@H](Nc2cc(Nc3ccnc(-c4cnn(S(=O)(=O)C5CC5)c4)n3)ncc2-c2cc(C(F)(F)F)n(C)n2)CC1 [Example 257] | 4.3 nM
Cn1cc(C#Cc2cc(Nc3ccnc(-c4cnn(S(=O)(=O)C5CC5)c4)n3)ncc2-c2cnn(C(F)F)c2)cn1 [Example 2] | 31.3 nM
O=S(=O)(C1CC1)n1cc(-c2nccc(Nc3cc(NC4CC5(CC(O)C5)C4)c(-c4ccn(C(F)F)n4)cn3)n2)cn1 (stereo not shown) [Example 103] | 0.8 nM

Provide value of IC50 for this record tested with EGFR del19/T790M/C797S (Homo sapiens, UniProt P00533, C797S/DEL746-750/T790M): O=S(=O)(C1CC1)n1cc(-c2nccc(Nc3cc(NC4CCC(O)(C5CC5)CC4)c(-c4ccn(C(F)F)n4)cn3)n2)cn1 (stereo not shown) [Example 110] 2.5 nM

Also, CS(=O)(=O)n1cc(-c2nccc(Nc3cc(N[C@H]4CC[C@@](C)(O)CC4)c(-c4ccn(C(F)F)n4)cn3)n2)cn1 [Example 112] please. 1.2 nM

Also, CN1CC(Nc2cc(Nc3ccnc(-c4cnn(S(=O)(=O)C5CC5)c4)n3)ncc2-c2ccn(C(F)F)n2)CCC1=O (stereo not shown) [Example 37] please. 1.2 nM

Also, O=S(=O)(C1CC1)n1cc(-c2nccc(Nc3cc(NC4CCCCC4O)c(-c4ccn(C(F)F)n4)cn3)n2)cn1 (stereo not shown) [Example 28] please. 0.9 nM

Also, O=S(=O)(C1CC1)n1cc(-c2nccc(Nc3cc(N[C@H]4CCC[C@H](CO)C4)c(-c4ccn(C(F)F)n4)cn3)n2)cn1 [Example 202] please. 1.1 nM

Also, CN(C)C(=O)C[C@H]1CC[C@@H](Nc2cc(Nc3ccnc(-c4cnn(S(=O)(=O)C5CC5)c4)n3)ncc2-c2cc(C(F)(F)F)n(C)n2)CC1 [Example 258] please. 2.5 nM

Also, O=S(=O)(C1CC1)n1cc(-c2nccc(Nc3cc(OC4CCC(OC(F)F)CC4)c(-c4cnn(C(F)F)c4)cn3)n2)cn1 (stereo not shown) [Example 70] please. 10.2 nM

Also, O=S(=O)(C1CC1)n1cc(-c2nccc(Nc3cc(N[C@H]4CC[C@@H](CN5CCC5)CC4)c(-c4ccn(C(F)F)n4)cn3)n2)cn1 [Example 208] please. 0.3 nM

---

TGT: EGFR del19/C797S (Homo sapiens, UniProt P00533, C797S/DEL746-750)
Sequence (P00533 with tags, fused parts or gaps DEL746-750/C797S): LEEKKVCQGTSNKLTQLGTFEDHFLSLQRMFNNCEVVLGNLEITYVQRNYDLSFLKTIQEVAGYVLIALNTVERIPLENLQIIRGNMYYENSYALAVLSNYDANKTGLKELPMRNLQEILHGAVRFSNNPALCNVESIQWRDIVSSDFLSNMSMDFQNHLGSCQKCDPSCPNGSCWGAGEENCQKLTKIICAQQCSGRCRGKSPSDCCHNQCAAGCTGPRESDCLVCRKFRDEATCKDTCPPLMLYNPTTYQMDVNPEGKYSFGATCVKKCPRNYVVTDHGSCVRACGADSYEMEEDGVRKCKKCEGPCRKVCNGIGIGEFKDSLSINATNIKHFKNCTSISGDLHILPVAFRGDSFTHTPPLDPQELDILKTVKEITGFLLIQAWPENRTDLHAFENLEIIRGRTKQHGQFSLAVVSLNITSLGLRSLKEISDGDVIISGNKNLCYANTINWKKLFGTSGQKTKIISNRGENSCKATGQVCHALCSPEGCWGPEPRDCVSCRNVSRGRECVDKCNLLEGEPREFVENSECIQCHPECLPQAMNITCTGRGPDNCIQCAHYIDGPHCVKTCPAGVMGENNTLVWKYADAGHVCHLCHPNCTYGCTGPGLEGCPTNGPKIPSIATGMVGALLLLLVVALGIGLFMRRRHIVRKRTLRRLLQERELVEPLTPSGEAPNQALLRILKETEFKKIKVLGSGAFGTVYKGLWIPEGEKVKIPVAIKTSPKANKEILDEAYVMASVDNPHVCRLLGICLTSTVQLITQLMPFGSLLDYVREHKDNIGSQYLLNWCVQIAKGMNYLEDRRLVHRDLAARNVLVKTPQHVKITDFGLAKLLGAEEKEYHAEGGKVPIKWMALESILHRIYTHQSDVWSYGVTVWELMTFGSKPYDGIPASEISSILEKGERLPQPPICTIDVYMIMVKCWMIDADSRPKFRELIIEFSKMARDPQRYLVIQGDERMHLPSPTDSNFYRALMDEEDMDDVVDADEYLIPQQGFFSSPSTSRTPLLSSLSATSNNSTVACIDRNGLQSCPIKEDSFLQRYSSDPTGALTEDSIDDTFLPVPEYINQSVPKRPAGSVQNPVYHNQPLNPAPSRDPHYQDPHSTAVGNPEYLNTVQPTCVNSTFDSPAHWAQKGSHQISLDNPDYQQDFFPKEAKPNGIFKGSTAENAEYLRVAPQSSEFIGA
MEASUREMENT_DESCRIPTION: Biochemical EGFR kinase assay (Lance Ultra TR-FRET), double mutant del19/C797S
TEST_CONTEXT: IC50 del19/C797S (nM) 100 μM ATP, 100 μM ATP
OBSERVABLE: IC50 (nM)
Entry rule: numbers only, all in nM.

# annotated cases, reported IC50 shown
SUBSTANCE_SMILES | TGT | UNIT_OF_MEASURE | IC50
CC(C)(O)[C@H]1CC[C@@H](Nc2cc(Nc3ccnc(-c4cnn(S(=O)(=O)C5CC5)c4)n3)ncc2-c2ccn(C(F)F)n2)CC1 | EGFR del19/C797S (Homo sapiens, UniProt P00533, C797S/DEL746-750) | nM | 18.8
Cn1nc(-c2cnc(Nc3ccnc(-c4cnn(S(=O)(=O)C5CC5)c4)n3)cc2N[C@H]2CC[C@@H](C(C)(C)O)CC2)cc1C(F)(F)F | EGFR del19/C797S (Homo sapiens, UniProt P00533, C797S/DEL746-750) | nM | 6.5

For the molecule shown here, `O=S(=O)(C1CC1)n1cc(-c2nccc(Nc3cc(N[C@H]4CCCNCC4)c(-c4ccn(C(F)F)n4)cn3)n2)cn1` , give the reported IC50. 19.1

---

TGT: EGFR wildtype (WT) (Homo sapiens)
Sequence (P00533 25-1210): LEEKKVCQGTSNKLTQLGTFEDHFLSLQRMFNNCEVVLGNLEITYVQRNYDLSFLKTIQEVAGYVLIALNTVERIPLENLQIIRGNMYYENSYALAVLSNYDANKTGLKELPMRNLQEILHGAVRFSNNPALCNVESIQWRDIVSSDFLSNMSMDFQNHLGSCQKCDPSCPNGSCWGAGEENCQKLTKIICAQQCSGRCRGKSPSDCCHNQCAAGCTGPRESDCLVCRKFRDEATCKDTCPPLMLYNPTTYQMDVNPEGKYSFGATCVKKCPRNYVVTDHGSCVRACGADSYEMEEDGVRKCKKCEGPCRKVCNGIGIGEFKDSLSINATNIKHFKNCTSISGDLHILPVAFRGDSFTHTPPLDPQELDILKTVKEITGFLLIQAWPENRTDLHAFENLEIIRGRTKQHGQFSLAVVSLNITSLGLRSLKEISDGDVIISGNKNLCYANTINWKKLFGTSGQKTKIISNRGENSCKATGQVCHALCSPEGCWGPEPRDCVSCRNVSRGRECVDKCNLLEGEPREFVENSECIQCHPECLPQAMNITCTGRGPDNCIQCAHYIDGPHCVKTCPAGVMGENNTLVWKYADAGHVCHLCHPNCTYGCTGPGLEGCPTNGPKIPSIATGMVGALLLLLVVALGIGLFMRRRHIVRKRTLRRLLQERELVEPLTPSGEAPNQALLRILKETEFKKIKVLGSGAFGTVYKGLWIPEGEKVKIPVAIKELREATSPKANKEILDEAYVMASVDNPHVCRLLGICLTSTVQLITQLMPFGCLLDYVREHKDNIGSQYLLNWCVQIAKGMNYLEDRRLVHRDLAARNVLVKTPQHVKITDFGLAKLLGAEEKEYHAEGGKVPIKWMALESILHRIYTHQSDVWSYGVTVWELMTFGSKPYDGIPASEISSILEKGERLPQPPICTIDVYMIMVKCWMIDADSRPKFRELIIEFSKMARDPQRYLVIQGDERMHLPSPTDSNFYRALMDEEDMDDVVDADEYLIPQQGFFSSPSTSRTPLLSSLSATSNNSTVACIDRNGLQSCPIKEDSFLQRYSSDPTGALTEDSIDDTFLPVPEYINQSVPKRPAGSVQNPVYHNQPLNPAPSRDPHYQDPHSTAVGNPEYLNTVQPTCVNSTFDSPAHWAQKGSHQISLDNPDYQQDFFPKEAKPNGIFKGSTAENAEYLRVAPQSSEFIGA
MEASUREMENT_DESCRIPTION: Biochemical EGFR kinase assay (Lance Ultra TR-FRET), wildtype
TEST_CONTEXT: IC50 WT (nM) 100 μM ATP, 100 μM ATP
Experimental: Biochemical EGFR kinase assays were conducted using Lance Ultra time-resolved fluorescence resonance energy transfer (TR-FRET) technology from Perkin-Elmer. […] Each kinase reactions were incubated at room temperature for 1 hour and then stopped by the addition of 4 μL of stop solution (10 mM EDTA). […] After 60 minutes incubation at room temperature the LANCE signal was measured on an EnVision Multilabel Reader (Perkin-Elmer). […]
Reported values of IC50 for individual entries

COMPOUND | TGT | IC50
CN[C@H]1CC[C@@H](Oc2cc(Nc3ccnc(-c4cnn(S(=O)(=O)C5CC5)c4)n3)ncc2-c2ccn(C(F)F)n2)CC1 | EGFR wildtype (WT) (Homo sapiens) | > 10000 nM
Cn1ccc(-c2cnc(Nc3ccnc(-c4cnn(S(=O)(=O)C5CC5)c4)n3)cc2N[C@H]2CC[C@](O)(CO)CC2)n1 | EGFR wildtype (WT) (Homo sapiens) | 1510 nM

For the compound shown here, O=S(=O)(C1CC1)n1cc(-c2nccc(Nc3cc(OC4CCC(O)CC4)c(-c4cnn(C(F)F)c4)cn3)n2)cn1 (stereo not shown) , give the reported IC50. > 10000 nM

Also, `O=S(=O)(C1CC1)n1cc(-c2nccc(Nc3cc(N[C@H]4CC[C@@H](NCCF)CC4)c(-c4cc5n(n4)CCCC5)cn3)n2)cn1` please. 617 nM

Also, `O=S(=O)(C1CC1)n1cc(-c2nccc(Nc3cc(N[C@H]4CC[C@@H](NCC(F)F)CC4)c(-c4csc(C(F)(F)F)n4)cn3)n2)cn1` please. > 10000 nM

Also, `CN(C)C[C@H]1CC[C@@H](Nc2cc(Nc3ccnc(-c4cnn(S(=O)(=O)C5CC5)c4)n3)ncc2-c2cc(C(F)(F)F)n(C)n2)CC1` please. 123 nM

Also, `O=S(=O)(C1CC1)n1cc(-c2nccc(Nc3cc(N[C@H]4CCC[C@H](CO)C4)c(-c4ccn(C(F)F)n4)cn3)n2)cn1` please. > 10000 nM

Also, `C[C@]1(O)CC[C@@H](Nc2cc(Nc3ccnc(-c4cnn(CC(F)(F)F)c4)n3)ncc2-c2ccn(C(F)F)n2)CC1` please. > 10000 nM

Also, O=S(=O)(C1CC1)n1cc(-c2nccc(Nc3cc(NCC4CCCC(O)C4)c(-c4ccn(C(F)F)n4)cn3)n2)cn1 (stereo not shown) please. > 10000 nM

Also, Cn1ccc(-c2cnc(Nc3ccnc(-c4cnn(S(=O)(=O)C5CC5)c4)n3)cc2NC2CCC(F)(CO)CC2)n1 (stereo not shown) please. > 10000 nM

---

TGT: EGFR L858R/T790M/C797S (Homo sapiens, UniProt P00533, C797S/L858R/T790M)
Sequence (P00533 25-1210 T790M/C797S/L858R): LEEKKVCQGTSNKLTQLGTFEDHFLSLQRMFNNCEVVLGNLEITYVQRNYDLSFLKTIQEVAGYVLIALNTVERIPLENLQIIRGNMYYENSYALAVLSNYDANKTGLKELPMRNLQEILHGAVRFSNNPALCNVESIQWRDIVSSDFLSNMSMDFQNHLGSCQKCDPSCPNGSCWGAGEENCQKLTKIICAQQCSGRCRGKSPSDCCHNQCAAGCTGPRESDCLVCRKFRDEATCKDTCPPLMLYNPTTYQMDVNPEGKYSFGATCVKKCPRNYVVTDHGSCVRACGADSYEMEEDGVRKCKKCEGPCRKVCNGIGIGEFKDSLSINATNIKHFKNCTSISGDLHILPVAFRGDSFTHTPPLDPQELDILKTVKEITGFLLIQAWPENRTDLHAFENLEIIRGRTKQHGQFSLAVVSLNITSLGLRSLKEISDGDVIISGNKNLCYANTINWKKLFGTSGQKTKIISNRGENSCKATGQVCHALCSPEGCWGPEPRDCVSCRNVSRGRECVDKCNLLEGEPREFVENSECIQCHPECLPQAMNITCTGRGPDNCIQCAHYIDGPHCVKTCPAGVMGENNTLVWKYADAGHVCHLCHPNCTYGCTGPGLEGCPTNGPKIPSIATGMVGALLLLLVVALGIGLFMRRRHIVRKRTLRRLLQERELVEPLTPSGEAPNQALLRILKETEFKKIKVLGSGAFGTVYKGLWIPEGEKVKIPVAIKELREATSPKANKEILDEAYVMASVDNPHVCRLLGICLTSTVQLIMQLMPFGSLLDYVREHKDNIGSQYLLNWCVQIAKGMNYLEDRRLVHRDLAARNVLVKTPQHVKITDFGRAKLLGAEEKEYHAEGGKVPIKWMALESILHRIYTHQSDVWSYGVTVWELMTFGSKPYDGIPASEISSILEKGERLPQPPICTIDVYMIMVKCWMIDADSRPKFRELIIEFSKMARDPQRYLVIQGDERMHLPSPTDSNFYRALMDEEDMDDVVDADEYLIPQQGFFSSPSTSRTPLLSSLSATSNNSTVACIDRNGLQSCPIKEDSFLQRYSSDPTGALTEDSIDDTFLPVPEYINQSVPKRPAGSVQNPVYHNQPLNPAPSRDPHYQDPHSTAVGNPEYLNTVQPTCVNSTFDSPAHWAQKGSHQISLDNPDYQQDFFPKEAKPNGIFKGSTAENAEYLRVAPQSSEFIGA
MEASUREMENT_DESCRIPTION: Biochemical EGFR kinase assay (Lance Ultra TR-FRET), triple mutant L858R/T790M/C797S
TEST_CONTEXT: Km ATP; read-out: IC50 L858R/T790M/C797S (nM) Km ATP
OBSERVABLE: IC50 (nM)
Entry rule: numbers only, all in nM.

# annotated cases, reported IC50 shown
MOLECULE | UNIT_OF_MEASURE | IC50
Cn1ccc(-c2cnc(Nc3ccnc(-c4cnn(S(=O)(=O)C5CC5)c4)n3)cc2N[C@H]2CC[C@H](CO)CC2)n1 | nM | 0.1
Cc1ccn(-c2cnc(Nc3ccnc(-c4cnn(S(=O)(=O)C5CC5)c4)n3)cc2N[C@H]2CC[C@@](C)(O)CC2)n1 | nM | 0.1

For the molecule shown here, `C[C@]1(O)CC[C@@H](Nc2cc(Nc3ccnc(-c4cccnc4F)n3)ncc2-c2ccn(C(F)F)n2)CC1` , give the reported IC50. 2.2

Also, Cn1ccc(-c2cnc(Nc3ccnc(-c4cnn(S(=O)(=O)C5CC5)c4)n3)cc2NC2CCCC(NCC(F)F)C2)n1 (stereo not shown) please. 0.3

Also, `O=S(=O)(C1CC1)n1cc(-c2nccc(Nc3cc(NC4CCC(F)(F)CC4)c(-c4ccn(C(F)F)n4)cn3)n2)cn1` please. 8.6

Also, `O=S(=O)(C1CC1)n1cc(-c2nccc(Nc3cc(N[C@H]4CC[C@@H](NCC(F)F)CC4)c(-c4cc5n(n4)CCCC5)cn3)n2)cn1` please. 0.7

Also, `O=S(=O)(C1CC1)n1cc(-c2nccc(Nc3cc(NC[C@H]4C[C@H](CO)C4)c(-c4ccn(C(F)F)n4)cn3)n2)cn1` please. 0.3
